pEC50: recorded values
measured.target: human somatostatin receptor subtype 2 (Homo sapiens)
Construct: expressed in transfected cells
Sequence (P30874 whole entry): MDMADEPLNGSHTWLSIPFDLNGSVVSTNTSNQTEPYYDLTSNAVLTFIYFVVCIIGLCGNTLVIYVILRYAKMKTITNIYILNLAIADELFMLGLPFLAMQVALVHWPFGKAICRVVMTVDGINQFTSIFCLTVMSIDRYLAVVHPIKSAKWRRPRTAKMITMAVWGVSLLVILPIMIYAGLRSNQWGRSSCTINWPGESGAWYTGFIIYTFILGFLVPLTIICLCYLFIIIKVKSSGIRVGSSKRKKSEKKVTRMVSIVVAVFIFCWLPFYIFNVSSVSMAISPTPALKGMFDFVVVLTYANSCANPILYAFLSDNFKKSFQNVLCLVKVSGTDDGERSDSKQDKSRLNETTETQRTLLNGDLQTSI
protocol.summary: Functional assay for SSTR2 agonists (HTRF cAMP)
Type: cell-based
condition.parameters: CHO-K1 cells stably expressing human SST2; NKH477-stimulated cAMP; 20 min at 37 C; read-out: hSST2 cAMP Avg EC50
pEC50: −log10 of the molar value.
quantity.name: pEC50

>>> numeric_result("CC[C@H](C)[C@@H]([C@@H](CC(=O)N1CCC[C@H]1[C@H](OC)[C@@H](C)C(=O)N[C@H](C)[C@@H](O)c1ccccc1)OC)N(C)C(=O)[C@@H](NC(=O)[C@H](C(C)C)N(C)C(=O)OCc1ccc(NC(=O)[C@H](C)NC(=O)[C@@H](NC(=O)CCOCCC(=O)N(C)CC(=O)NCCNc2ncc(-c3cc(C)cc(F)c3)c(N3CCC(N)CC3)c2-c2cc3ccc(Cl)cc3[nH]2)C(C)C)c(O[C@@H]2O[C@H](C(=O)NCCN)[C@@H](O)[C@H](O)[C@H]2O)c1)C(C)C [Compound 46]")
9.64
>>> numeric_result("CC[C@H](C)[C@@H]([C@@H](CC(=O)N1CCC[C@H]1[C@H](OC)[C@@H](C)C(=O)N[C@H](C)[C@@H](O)c1ccccc1)OC)N(C)C(=O)[C@@H](NC(=O)[C@H](C(C)C)N(C)C(=O)OCc1ccc(NC(=O)[C@H](CCCNC(N)=O)NC(=O)[C@@H](NC(=O)[C@H](CCC(=O)O)NC(=O)CCOCCC(=O)NCCNc2ncc(-c3cc(C)cc(F)c3)c(N3CCC(N)CC3)c2-c2nc3ccc(Cl)cc3[nH]2)C(C)C)c(C)c1)C(C)C [Compound 15]")
9.57
